# Target Under Test: Macrophage metalloelastase (Homo sapiens)
# Sequence (P39900 whole entry): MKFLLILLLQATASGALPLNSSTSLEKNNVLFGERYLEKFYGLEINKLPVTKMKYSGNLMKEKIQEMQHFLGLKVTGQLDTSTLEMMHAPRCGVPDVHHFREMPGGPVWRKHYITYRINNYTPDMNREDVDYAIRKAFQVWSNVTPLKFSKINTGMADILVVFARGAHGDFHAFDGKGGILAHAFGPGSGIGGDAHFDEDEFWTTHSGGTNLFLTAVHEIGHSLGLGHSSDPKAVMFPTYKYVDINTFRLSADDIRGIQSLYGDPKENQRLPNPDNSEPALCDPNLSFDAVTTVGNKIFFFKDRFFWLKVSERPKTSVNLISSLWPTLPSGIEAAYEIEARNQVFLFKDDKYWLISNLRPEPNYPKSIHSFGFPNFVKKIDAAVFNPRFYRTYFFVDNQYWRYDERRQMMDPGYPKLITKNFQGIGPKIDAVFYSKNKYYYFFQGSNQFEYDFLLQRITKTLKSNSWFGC
# Procedure Summary: Inhibition of recombinant human MMP-12 using peptide substrate by ELISA
pIC50: −log10 of the molar value.
Experimental Endpoint: pIC50

Sure, the documented pIC50 for NC1CCCCC1NC(=O)P(=O)(O)O (stereo not drawn) is < 7.00

Briefly, pIC50 measured for `O=C(NCCCCCCNS(=O)(=O)c1ccc(Oc2ccccc2)cc1)P(=O)(O)O` : < 7.00

Notebook: `O=C(NCCCCCNS(=O)(=O)c1ccc(Oc2ccccc2)cc1)P(=O)(O)O` , pIC50 read as < 7.10

* * *

# Target Under Test: Interstitial collagenase (Homo sapiens, UniProt P03956)
# Procedure Summary: Inhibition of human MMP-1 using Mca-Pro-Leu-Gly-Leu-Dpa-Ala-Arg-NH2 as substrate preincubated for 1 hr followed by susbstrate addition by fluorescent analysis
Experimental Endpoint: IC50

Lookup result for `Cc1cc(=O)c(O)c(C(=O)NCc2ccc(-c3ccc(-c4ccccc4)cc3)cc2)o1` ; measured IC50: > 50 µM

* * *

# Target Under Test: Neutrophil collagenase (Homo sapiens, UniProt P22894)
# Sequence (P22894 whole entry): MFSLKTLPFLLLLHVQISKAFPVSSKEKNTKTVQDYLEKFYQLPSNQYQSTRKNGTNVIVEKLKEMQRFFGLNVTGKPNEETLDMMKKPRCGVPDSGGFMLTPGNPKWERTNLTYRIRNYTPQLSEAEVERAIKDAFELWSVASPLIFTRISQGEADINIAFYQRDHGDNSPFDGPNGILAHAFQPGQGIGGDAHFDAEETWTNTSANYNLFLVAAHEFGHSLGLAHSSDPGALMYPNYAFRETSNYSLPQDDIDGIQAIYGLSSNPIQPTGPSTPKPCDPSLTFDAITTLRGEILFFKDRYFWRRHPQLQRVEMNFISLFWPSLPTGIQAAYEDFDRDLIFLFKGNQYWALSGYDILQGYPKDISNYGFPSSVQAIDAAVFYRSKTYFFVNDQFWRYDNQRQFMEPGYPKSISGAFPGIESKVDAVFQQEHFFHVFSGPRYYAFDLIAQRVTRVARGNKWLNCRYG
# Procedure Summary: Inhibition of recombinant human MMP-8 using peptide substrate by ELISA
pIC50: −log10 of the molar value.
Experimental Endpoint: pIC50

Reported pIC50 ( NC1CCCCC1NC(=O)P(=O)(O)O (stereo unspecified) ) = < 7.00

* * *

Task for the reader: assign each of the following compounds its reported pIC50.
# Target Under Test: Interstitial collagenase (Homo sapiens, UniProt P03956)
# Sequence (P03956 whole entry): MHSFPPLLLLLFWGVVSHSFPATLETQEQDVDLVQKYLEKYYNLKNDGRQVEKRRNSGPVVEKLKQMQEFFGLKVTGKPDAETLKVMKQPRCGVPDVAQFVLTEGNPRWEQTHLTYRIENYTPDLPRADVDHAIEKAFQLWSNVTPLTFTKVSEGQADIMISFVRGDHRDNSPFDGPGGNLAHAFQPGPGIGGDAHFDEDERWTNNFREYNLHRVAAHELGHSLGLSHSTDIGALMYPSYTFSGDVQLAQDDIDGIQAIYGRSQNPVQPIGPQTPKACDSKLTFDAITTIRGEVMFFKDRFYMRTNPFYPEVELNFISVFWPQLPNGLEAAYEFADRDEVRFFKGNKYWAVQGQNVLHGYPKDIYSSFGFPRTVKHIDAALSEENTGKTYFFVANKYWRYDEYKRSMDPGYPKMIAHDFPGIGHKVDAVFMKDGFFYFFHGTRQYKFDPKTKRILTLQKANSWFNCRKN
# Procedure Summary: Inhibition of MMP-1 (unknown origin)
Please report pIC50 as the negative decimal logarithm of the molar concentration, giving only the number.

Item: `CNC(=O)[C@@H](NC(=O)[C@H](CC(C)C)NC(=O)[C@H](S)CCN1C(=O)N(C)C(C)(C)C1=O)C(C)(C)C` | pIC50: 7.60

Item: `O=C(CS(=O)(=O)c1ccc(-c2ccccc2)cc1)NO` | pIC50: 5.74

Record summary for `O=C(O)CS(=O)(=O)c1ccc(-c2ccccc2)cc1` : reported pIC50 = 3.42

* * *

# Procedure Summary: Half life in Sprague-Dawley rats at 150 mg/kg, po
# Assay type: ADME, organism-based
# Run Conditions: rat, in vivo
Experimental Endpoint: half-life

// half-life value for NC1CCCCC1NC(=O)P(=O)(O)O (stereo unspecified) : 2.1 h
